log10 Activity by entry:
Assay: Antioxidant activity assessed as galvinoxyl radical scavenging activity in methanol by UV-visible spectroscopy
Format: functional
Answers are given as log10 of Activity in M⁻¹ s⁻¹.

Ask: For the molecule Oc1ccc(/N=C/c2ccc(O)c(O)c2)cc1 , report log10 Activity.
Reply: 4.17

Ask: For the molecule Oc1ccc(/C=C/c2cc(O)cc(O)c2)cc1 , report log10 Activity.
Reply: 1.62

###

Assay: Antioxidant activity assessed as galvinoxyl radical scavenging activity in methanol by UV-visible spectroscopy
Type: functional
Activity by entry:
Give your result in M⁻¹ s⁻¹ as a bare value.

// worked examples, Activity included
INSERT INTO assay_data (compound_string, measured_attribute, reported) VALUES
  ('Oc1ccc(/N=C/c2ccccc2)cc1', 'Activity', 120),
  ('COc1ccc(/N=C/c2ccc(O)cc2)cc1', 'Activity', 2.48);

Ask: For the compound Oc1ccccc1/C=N/c1ccccc1 , report Activity.
Reply: 0.04
